# System: Medicago sativa
# measurement.notes: Post-emergence herbicidal activity against Medicago sativa (alfalfa) at 1500 g/ha after 10 days
# Assay type: functional
Mark yes only when Activity stays strictly below 10%. Values equal to the cut-off are no.

{"line.notation": "CCOCCOC(=O)/C(C#N)=C(/C)NCc1ccc(OCc2cnc(Cl)s2)c(OC)c1", "classification": "no"}
{"line.notation": "CC/C(NCc1ccc(OCc2cnc(Cl)s2)cc1)=C(\\C#N)C(=O)OCCOC", "classification": "yes"}
{"line.notation": "COCCOC(=O)/C(C#N)=C(/C)NCc1ccc(OCc2cnc(Cl)s2)c(OC)c1", "classification": "no"}
{"line.notation": "CCOCCOC(=O)/C(C#N)=C(\\NCc1ccc(OCc2cnc(Cl)s2)cc1)C(C)C", "classification": "no"}

----------
# target.system: Photosystem II protein D1 (Spinacia oleracea)
# measurement.notes: Inhibition of photosystem II in Spinacia oleracea (spinach) chloroplast assessed as inhibition of hill reaction at 1 ug/ml relative to control
Decision: inhibition compared against 70%; not below it gives yes, below it gives no.

{"line.notation": "COCCOC(=O)/C(C#N)=C(\\NCc1ccc(OCc2cnc(Cl)s2)c(OC)c1)C(C)C", "classification": "yes"}
{"line.notation": "COCCOC(=O)/C(C#N)=C(/C)NCc1ccc(OCc2cnc(Cl)s2)c(OC)c1", "classification": "no"}
{"line.notation": "COCCOC(=O)/C(C#N)=C(\\NCc1ccc(OCc2cnc(Cl)s2)cc1)C(C)C", "classification": "yes"}
{"line.notation": "CCOCCOC(=O)/C(C#N)=C(/C)NCc1ccc(OCc2cnc(Cl)s2)cc1", "classification": "no"}
{"line.notation": "CCOCCOC(=O)/C(C#N)=C(\\NCc1ccc(OCc2cnc(Cl)s2)cc1)SC", "classification": "yes"}
{"line.notation": "CCOCCOC(=O)/C(C#N)=C(\\NCc1ccc(Cl)nc1)SC", "classification": "yes"}
{"line.notation": "CCOCCOC(=O)/C(C#N)=C(\\NCc1ccc(OCc2cnc(Cl)s2)cc1)C(C)C", "classification": "yes"}
{"line.notation": "CCOCCOC(=O)/C(C#N)=C(\\NCc1ccc(OCc2cnc(Cl)s2)c(OC)c1)C(C)C", "classification": "yes"}
{"line.notation": "COCCOC(=O)/C(C#N)=C(\\NCc1ccc(OCc2cnc(Cl)s2)c(OC)c1)SC", "classification": "no"}
{"line.notation": "COCCOC(=O)/C(C#N)=C(/C)NCc1ccc(OCc2cnc(Cl)s2)cc1", "classification": "no"}
{"line.notation": "CC/C(NCc1ccc(OCc2cnc(Cl)s2)cc1)=C(\\C#N)C(=O)OCCOC", "classification": "no"}
{"line.notation": "CCOCCOC(=O)/C(C#N)=C(\\NCc1ccc(OCc2cnc(Cl)s2)c(OC)c1)SC", "classification": "yes"}
{"line.notation": "COCCOC(=O)/C(C#N)=C(\\NCc1ccc(OCc2cnc(Cl)s2)cc1)SC", "classification": "yes"}

----------
# System: Medicago sativa
# measurement.notes: Post-emergence herbicidal activity against Medicago sativa (alfalfa) at 1500 g/ha after 10 days
# Format: functional

{"line.notation": "CCOCCOC(=O)/C(C#N)=C(\\NCc1ccc(OCc2cnc(Cl)s2)c(OC)c1)C(C)C", "value.unit": "%", "Activity": 68.5}
{"line.notation": "COCCOC(=O)/C(C#N)=C(\\NCc1ccc(OCc2cnc(Cl)s2)c(OC)c1)SC", "value.unit": "%", "Activity": 66.1}
{"line.notation": "CCOCCOC(=O)/C(C#N)=C(\\NCc1ccc(OCc2cnc(Cl)s2)cc1)SC", "value.unit": "%", "Activity": 0}
{"line.notation": "COCCOC(=O)/C(C#N)=C(\\NCc1ccc(OCc2cnc(Cl)s2)cc1)C(C)C", "value.unit": "%", "Activity": 30}
{"line.notation": "CCOCCOC(=O)/C(C#N)=C(\\NCc1ccc(Cl)nc1)SC", "value.unit": "%", "Activity": 85}
{"line.notation": "COCCOC(=O)/C(C#N)=C(\\NCc1ccc(OCc2cnc(Cl)s2)c(OC)c1)C(C)C", "value.unit": "%", "Activity": 71.1}
{"line.notation": "CCOCCOC(=O)/C(C#N)=C(\\NCc1ccc(OCc2cnc(Cl)s2)c(OC)c1)SC", "value.unit": "%", "Activity": 49.2}
{"line.notation": "COCCOC(=O)/C(C#N)=C(/C)NCc1ccc(OCc2cnc(Cl)s2)cc1", "value.unit": "%", "Activity": 0}
{"line.notation": "CCOCCOC(=O)/C(C#N)=C(/CC)NCc1ccc(OCc2cnc(Cl)s2)c(OC)c1", "value.unit": "%", "Activity": 41.9}
{"line.notation": "CCOCCOC(=O)/C(C#N)=C(/C)NCc1ccc(OCc2cnc(Cl)s2)cc1", "value.unit": "%", "Activity": 0}
{"line.notation": "COCCOC(=O)/C(C#N)=C(\\NCc1ccc(OCc2cnc(Cl)s2)cc1)SC", "value.unit": "%", "Activity": 30}
{"line.notation": "CC/C(NCc1ccc(OCc2cnc(Cl)s2)c(OC)c1)=C(\\C#N)C(=O)OCCOC", "value.unit": "%", "Activity": 46.8}

----------
# target.system: Photosystem II protein D1 (Spinacia oleracea)
# measurement.notes: Inhibition of photosystem II in Spinacia oleracea (spinach) chloroplast assessed as inhibition of hill reaction at 1 ug/ml relative to control

{"line.notation": "CC/C(NCc1ccc(OCc2cnc(Cl)s2)c(OC)c1)=C(\\C#N)C(=O)OCCOC", "value.unit": "%", "inhibition": 70.2}
{"line.notation": "CCOCCOC(=O)/C(C#N)=C(/C)NCc1ccc(OCc2cnc(Cl)s2)c(OC)c1", "value.unit": "%", "inhibition": 68.5}
{"line.notation": "CCOCCOC(=O)/C(C#N)=C(/CC)NCc1ccc(OCc2cnc(Cl)s2)c(OC)c1", "value.unit": "%", "inhibition": 71.3}
{"line.notation": "CCOCCOC(=O)/C(C#N)=C(/CC)NCc1ccc(OCc2cnc(Cl)s2)cc1", "value.unit": "%", "inhibition": 70.2}
